Cited source: PubChem BioAssay (NCATS)

# TEST: qHTS drug screen for cell cycle checkpoint inhibitors in PARPi-resistant BRCA-mutant ovarian cancer cell lines. (AID 1963452)
# CONDITION: PEO1/OlaR viability, CellTiter-Glo luminescence, 96 h; measured here: PEO1 parental Z-AUC; stronger effect = lower value
Measured Z-AUC determines class: group A = under 0.4, group B = from 0.4 up to 0.8, group C = 0.8 and over

MOLECULE	CLASS
CC(C)(C)c1nc(-c2cccc(NS(=O)(=O)c3c(F)cccc3F)c2F)c(-c2ccnc(N)n2)s1	group C
NC(=O)c1noc([C@H](CCCC2CCCCC2)CC(=O)NO)n1	group B
COc1ccc2c(c1)c(C1=C(c3c[nH]c4ccccc34)C(=O)NC1=O)cn2CCCN(C)C	group A
O=c1cc(-c2ccc(O)c(O)c2)oc2cc(O)cc(O)c12	group B
COc1ccc(CCN(C)CCCOc2ccc(S(=O)(=O)c3[nH]c4ccccc4c3C(C)C)cc2)cc1OC	group A

Ask: Record CN[C@@H](C)[C@H]1[C@H](O)C[C@@]2(C)[C@@H]3CC[C@H]4C(C)(C)[C@@H](NC)CC[C@@]45C[C@@]35CC[C@]12C — which class?
Reply: group A

Ask: Would you mind sorting Cc1ccc2c(c1)C(=O)[C@]1(O)CCN(c3ccccc3)C1=N2 into the appropriate category?
Reply: group C

Ask: Which class is correct for the following molecule? CC1CNc2c(cccc2S(=O)(=O)N[C@@H](CCCN=C(N)N)C(=O)N2CC[C@@H](C)C[C@@H]2C(=O)O)C1 (some centres undefined)
Reply: group B

###

# TEST: Primary qHTS for inhibitors of nuclear receptor binding SET domain protein 2 (NSD2) in an isogenic RCH-ACV NSD2 p.E1099K mutant (9B) (AID 1645876); further: nearly all actives have a fitted effect of over 70% in size
# CONDITION: RCH-ACV (leukaemia line) NSD2 E1099K (9B) viability, CellTiter-Glo, 72 h; series mostly up to 44.9 µM
Inconclusive results are not listed. Activity calls are given as the source filed them. Calls come from the whole dose curve; as a rule, active = well fitted inhibition curve with a large enough effect; inconclusive = small, poorly fitted or top-dose-only effect; inactive = flat fitted curve, though single readings scatter.
// one of active, inactive, no free text

COMPOUND	CLASS
CC(C)(C)c1nc(-c2cccc(NS(=O)(=O)c3c(F)cccc3F)c2F)c(-c2ccnc(N)n2)s1	active
NCc1c[nH]c(=S)n1[C@H]1CCc2c(F)cc(F)cc2C1	inactive
CN(C)N=Nc1nc[nH]c1C(N)=O	active

Ask: Test call, this compound: CCn1c(-c2nonc2N)nc2cncc(CNC3CCNCC3)c21
Reply: active

Ask: Returns: the outcome recorded for Cc1ccc2c(=O)c3cccc(CC(=O)O)c3oc2c1C in this assay.
Reply: inactive

Ask: # outcome recorded in this test, key = O=C1NC(=O)C(c2cnc3ccccn23)=C1c1cn2c3c(cccc13)CN(C(=O)N1CCOCC1)CC2
Reply: active

Ask: Please share the test call associated with O=C(O)Cc1cccc(OCCCN(Cc2cccc(C(F)(F)F)c2Cl)CC(c2ccccc2)c2ccccc2)c1 .
Reply: inactive

Ask: Assay result, entry CN1CCN2c3ncccc3Cc3ccccc3C2C1 (stereo unspecified) — outcome?
Reply: inactive

Ask: // return assay outcome for NC1(C(=O)N[C@@H](CCO)c2ccc(Cl)cc2)CCN(c2ncnc3[nH]ccc23)CC1
Reply: active

Ask: Please share the test call associated with O=C(NCCCCN1CCOCC1)c1cc2ccccc2o1 .
Reply: inactive

Ask: # lookup: test call for COc1cc2ncn(-c3cc(OCc4ccccc4S(C)(=O)=O)c(C#N)s3)c2cc1OC
Reply: inactive

###

# Test system: SC27B
# TEST: qHTS profiling for inhibitors of Plasmodium falciparum proliferation (AID 504749); further: nearly all actives have a fitted effect of over 60% in size
# CONDITION: P. falciparum in erythrocytes, SYBR Green DNA, 72 h; series mostly up to 28.7 µM
Inconclusive results are not listed. Calls of active or inactive are those of the source. Calls follow the shape of the dose curve; as a rule, active = well fitted inhibition curve with a large enough effect; inconclusive = small, poorly fitted or top-dose-only effect; inactive = flat fitted curve, though single readings scatter.
Classes to choose from: yes (active), no (inactive)

MOLECULE	TEST_TARGET	CLASS
COc1c(C)c2c(c(O)c1CC=C(C)CCC(=O)OCCN1CCOCC1)C(=O)OC2	SC27B	yes
CC(C)CN(C[C@@H](O)[C@H](Cc1ccccc1)NC(=O)O[C@H]1CO[C@H]2OCC[C@H]21)S(=O)(=O)c1ccc(N)cc1	SC27B	no
N#Cc1c(N(CC(=O)O)CC(=O)O)sc(C(=O)O)c1CC(=O)O	SC27B	no
Clc1ccc(COC(Cn2ccnc2)c2ccc(Cl)cc2Cl)c(Cl)c1 (stereo not drawn)	SC27B	yes
N#CC(c1ccc(Cl)cc1)c1c(Cl)cc(-n2ncc(=O)[nH]c2=O)cc1Cl (stereo not drawn)	SC27B	no
C=C1c2cccc(O)c2C(O)=C2C(=O)[C@@]3(O)C(O)=C(C(N)=O)C(=O)[C@@H](N(C)C)[C@@H]3[C@@H](O)[C@H]12	SC27B	no
O=C1C(CCC(O)c2ccc(F)cc2)C(c2ccc(O)cc2)N1c1ccc(F)cc1 (stereo not drawn)	SC27B	no

Proceed to the following item.
Ask: Record lookup: outcome of this test for CN1CC(=O)N2C(Cc3c([nH]c4ccccc34)[C@H]2c2ccc3c(c2)OCO3)C1=O (stereo partly drawn) ?
Reply: no

###

# TEST: High-throughput drug toxicity screening in the BPDCN cell line Cal-1 (AID 1224825);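 further: cells exposed to compounds for 48 h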
# CONDITION: Cal-1 BPDCN cell viability, qHTS; at 45.8 µM (top of the series) unless noted
Just a reminder that ties go to False: only viability (% of control) strictly below 10% counts as True.

Ask: Does the reported viability (% of control) of Cc1ccccc1-n1c(Cn2nc(-c3cccc(O)c3)c3c(N)ncnc32)nc2cccc(C)c2c1=O stay below 10%?
Reply: False

###

# TEST: Quantitative High-Throughput drug screen in 47 multiple myeloma cell lines against the NCATS MIPE library collection: KMS12BM_JCRB cell viability assay (AID 1918971); further: nearly all actives have a fitted effect of over 35% in size
# CONDITION: KMS12BM myeloma viability, CellTiter-Glo ATP, 48 h; series mostly up to 45.8 µM
Inconclusive results are not listed. Calls of active or inactive are those of the source. Calls follow the shape of the dose curve; as a rule, active = well fitted cell-killing curve with a large enough effect; inconclusive = small, poorly fitted or top-dose-only effect, or effect the other way; inactive = no such curve, though single readings can be large or run the other way.
Hello, when you answer, please use one of the following outcomes: active, inactive

COMPOUND	CLASS
COc1cc2c(cc1OC)[C@@H]1Cc3ccc(OC)c(OC)c3CN1CC2	active
NS(=O)(=O)c1ccc(Nc2nc(OCC3CCCCC3)c3[nH]cnc3n2)cc1	active
COc1ccc2ccc(=O)oc2c1CC=C(C)C	active
COc1nccc(-c2c(-c3ccc(F)cc3)ncn2C2CCC(O)CC2)n1 (stereo not given)	active
CCc1cccc(CC)c1NC(=O)N1Cc2[nH]nc(NC(=O)c3ccc(N4CCN(C)CC4)cc3)c2C1	active

Ask: Look up the recorded call for CCC(=C(CC)c1ccc(O)cc1)c1ccc(O)cc1 in this test.
Reply: active

Ask: Outcome logged for CNC(=O)c1ccc2c(C(=Nc3cccc(CN(C)C)c3)c3ccccc3)c(O)[nH]c2c1 in this assay:
Reply: inactive

Ask: Call for entry C=C1[C@H](n2cnc3c(=O)[nH]c(N)nc32)C[C@H](O)[C@H]1CO :
Reply: active

Ask: Called result for CC(NCCc1ccc(O)cc1)C(O)c1ccc(O)cc1 (stereo not given)
Reply: inactive

Ask: Please let me know the test result on file for COc1cc2nc(-c3cc(F)ccc3O)nc(N[C@@H]3CNC[C@@H]3C(C)(C)O)c2cc1OC .
Reply: active

###

# TEST: Quantitative High-Throughput drug screen in 47 multiple myeloma cell lines against the NCATS MIPE library collection: INA6_PLB cell viability assay (AID 1918965; further: nearly all actives have a fitted effect of over 55% in size)
# CONDITION: INA6 myeloma viability, CellTiter-Glo ATP luminescence, 48 h; series mostly up to 45.8 µM
# Text: PI: Beverly A. Mock Ph.D. Laboratory of Cancer Biology and Genetics, Center for Cancer Research, National Cancer Institute, National Institute of Health, Bethesda, Maryland […] 5; Detector; 425V; Luminescence; Viewlux PerkinElmer. […] 1. […] Briefly, the corresponding myeloma cell lines were screened in 1,536-well plates with 500 cells, 5-uL per well for inhibition of cell viability (assessed by measuring ATP levels with CellTiterGlo). […]
Inconclusive results are not listed. Activity calls are given as the source filed them. Calls come from the whole dose curve; as a rule, active = well fitted cell-killing curve with a large enough effect; inconclusive = small, poorly fitted or top-dose-only effect, or effect the other way; inactive = no such curve, though single readings can be large or run the other way.
Mark one answer only. Choices: active, inactive

Recorded results for 2 molecules are shown here.
MOLECULE	CLASS
CCC[C@H](N[C@@H](C)C(=O)N1[C@@H]2CCCC[C@H]2C[C@H]1C(=O)O)C(=O)OCC	inactive
CC[C@H](CC#N)OC(=O)N[C@@H](C)c1cccc(NC(=O)Nc2ccc(-c3cnco3)c(OC)c2)c1	active

Ask: GET /call?item= COC(=O)Nc1ccc(-c2nc(N3CCOCC3)c3cnn(C4CCN(C(=O)OC)CC4)c3n2)cc1 returns the recorded outcome of this test.
Reply: active

Ask: Outcome logged for O=C(Nc1cccc(Cl)c1)Nc1ncc(CCNc2ncnc3ccsc23)s1 in this assay:
Reply: active

Ask: Record request — test call for CNC1CCC(N(Cc2cccc(-c3ccncc3)c2)C(=O)c2sc3ccccc3c2Cl)CC1 (centres undefined)
Reply: active

Ask: Test call for this molecule, please: O=C1C(CCC(O)c2ccc(F)cc2)C(c2ccc(O)cc2)N1c1ccc(F)cc1 (centres undefined)
Reply: inactive

Ask: # lookup: test call for CN(C)c1nc(Cc2ccc(NC(=O)c3ccc(C(F)(F)F)cc3)cc2)nc(N(C)C)c1CC(=O)O
Reply: inactive

Ask: Assay outcome for CN(C)N=Nc1nc[nH]c1C(N)=O : what was it?
Reply: active

Ask: What outcome does the record of this test show for COc1cc2nccc(Oc3ccc(NC(=O)Nc4cc(C)on4)c(Cl)c3)c2cc1OC ?
Reply: active
